# Test system: Escherichia coli TOP10
# assay info: shrunken log2 fold change of peptide-encoding DNA abundance (4.5 h post-induction vs induction); higher = less antimicrobial activity (less host growth inhibition)
# applied conditions: time post-induction: 4.5 h; library: site-saturation at positions 5, 18, 19, 20
Could you please report measured shrunken log2 fold change for the items listed next?
Reply with the value as a number alone.

Requested field: shrunken log2 fold change. Item: RRIRTRPPRLPRPRPRPAPYPRP 0.151

Requested field: shrunken log2 fold change. Item: RRIRSRPPRLPRPRPRPMFYPRP -0.544

Requested field: shrunken log2 fold change. Item: RRIRPRPPRLPRPRPRPRVHPRP -0.0821

Requested field: shrunken log2 fold change. Item: RRIRERPPRLPRPRPRPRWVPRP -0.0454

Requested field: shrunken log2 fold change. Item: RRIRGRPPRLPRPRPRPACGPRP 0.967

Requested field: shrunken log2 fold change. Item: RRIRKRPPRLPRPRPRPPEAPRP 0.948

Requested field: shrunken log2 fold change. Item: RRIRIRPPRLPRPRPRPKSGPRP -0.128

Requested field: shrunken log2 fold change. Item: RRIRTRPPRLPRPRPRPPRSPRP 0.529

Requested field: shrunken log2 fold change. Item: RRIRVRPPRLPRPRPRPPDFPRP 0.0119

Requested field: shrunken log2 fold change. Item: RRIRGRPPRLPRPRPRPSNEPRP 0.131

Requested field: shrunken log2 fold change. Item: RRIRERPPRLPRPRPRPKWSPRP -0.146

Requested field: shrunken log2 fold change. Item: RRIRCRPPRLPRPRPRPWKRPRP -0.0584

Requested field: shrunken log2 fold change. Item: RRIRTRPPRLPRPRPRPCARPRP -0.187

Requested field: shrunken log2 fold change. Item: RRIRPRPPRLPRPRPRPRYKPRP -0.269

---

# Test system: Escherichia coli TOP10
# assay info: shrunken log2 fold change of peptide-encoding DNA abundance (4.5 h post-induction vs induction); higher = less antimicrobial activity (less host growth inhibition)
# applied conditions: time post-induction: 4.5 h; library: site-saturation at positions 5, 18, 19, 20
Could you please report measured shrunken log2 fold change for the items listed next?
Reply with the value as a number alone.

Requested field: shrunken log2 fold change. Item: RRIRHRPPRLPRPRPRPSWVPRP -0.0882

Requested field: shrunken log2 fold change. Item: RRIRHRPPRLPRPRPRPYWAPRP -0.186

Requested field: shrunken log2 fold change. Item: RRIRVRPPRLPRPRPRPHYVPRP 0.0323

Requested field: shrunken log2 fold change. Item: RRIRQRPPRLPRPRPRPEQDPRP 0.311

---

# Test system: Escherichia coli TOP10
# assay info: shrunken log2 fold change of peptide-encoding DNA abundance (4.5 h post-induction vs induction); higher = less antimicrobial activity (less host growth inhibition)
# applied conditions: time post-induction: 4.5 h; library: site-saturation at positions 5, 18, 19, 20
Class (required): determined from shrunken log2 fold change; valid ranges are 1 = under -0.2, 2 = from -0.2 up to 0.2, 3 = 0.2 and over

Given RRIRMRPPRLPRPRPRPYYIPRP , name the class its shrunken log2 fold change places it in. 1

Given RRIRGRPPRLPRPRPRPMWTPRP , name the class its shrunken log2 fold change places it in. 3

Given RRIRCRPPRLPRPRPRPLDDPRP , name the class its shrunken log2 fold change places it in. 2

Given RRIRTRPPRLPRPRPRPVYAPRP , name the class its shrunken log2 fold change places it in. 1

Given RRIRDRPPRLPRPRPRPNDEPRP , name the class its shrunken log2 fold change places it in. 3

Given RRIRDRPPRLPRPRPRPHILPRP , name the class its shrunken log2 fold change places it in. 2

Given RRIRLRPPRLPRPRPRPDVWPRP , name the class its shrunken log2 fold change places it in. 2

Given RRIRFRPPRLPRPRPRPDMDPRP , name the class its shrunken log2 fold change places it in. 2

Given RRIRERPPRLPRPRPRPQKHPRP , name the class its shrunken log2 fold change places it in. 1

Given RRIRSRPPRLPRPRPRPGWFPRP , name the class its shrunken log2 fold change places it in. 3

Given RRIRVRPPRLPRPRPRPDSGPRP , name the class its shrunken log2 fold change places it in. 2

Given RRIRTRPPRLPRPRPRPPTNPRP , name the class its shrunken log2 fold change places it in. 2

Given RRIRQRPPRLPRPRPRPDTYPRP , name the class its shrunken log2 fold change places it in. 2

Given RRIRTRPPRLPRPRPRPDAAPRP , name the class its shrunken log2 fold change places it in. 3

Given RRIRCRPPRLPRPRPRPSCHPRP , name the class its shrunken log2 fold change places it in. 1

Given RRIRDRPPRLPRPRPRPSNKPRP , name the class its shrunken log2 fold change places it in. 1

Given RRIRSRPPRLPRPRPRPLQTPRP , name the class its shrunken log2 fold change places it in. 3

Given RRIRKRPPRLPRPRPRPAQFPRP , name the class its shrunken log2 fold change places it in. 3

Given RRIRARPPRLPRPRPRPFILPRP , name the class its shrunken log2 fold change places it in. 1

Given RRIRMRPPRLPRPRPRPYHNPRP , name the class its shrunken log2 fold change places it in. 1

---

# System: Escherichia coli TOP10;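 further: peptides expressed intracellularly from a pBAD plasmid library in pooled LB shake-flask culture, induced with 0.3% L-arabinose, DNA abundance read by NGS, three biological replicates, DESeq2 with apeglm shrinkage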
# assay info: shrunken log2 fold change of peptide-encoding DNA abundance (4.5 h post-induction vs induction); higher = less antimicrobial activity (less host growth inhibition)
# applied conditions: time post-induction: 4.5 h; library: site-saturation at positions 5, 18, 19, 20
measure name: shrunken log2 fold change
Reply with the value as a number alone.

Requested field: shrunken log2 fold change. Item: RRIRTRPPRLPRPRPRPFAMPRP -0.348

Requested field: shrunken log2 fold change. Item: RRIRDRPPRLPRPRPRPEYIPRP -0.0149

Requested field: shrunken log2 fold change. Item: RRIRLRPPRLPRPRPRPKRVPRP -0.116

Requested field: shrunken log2 fold change. Item: RRIRPRPPRLPRPRPRPCSKPRP 0.0051

Requested field: shrunken log2 fold change. Item: RRIRSRPPRLPRPRPRPWASPRP -0.114

Requested field: shrunken log2 fold change. Item: RRIRKRPPRLPRPRPRPHYCPRP -0.00783

Requested field: shrunken log2 fold change. Item: RRIRLRPPRLPRPRPRPWPNPRP -0.0032

Requested field: shrunken log2 fold change. Item: RRIRQRPPRLPRPRPRPNGTPRP 1.1

Requested field: shrunken log2 fold change. Item: RRIRSRPPRLPRPRPRPVNWPRP 0.142

Requested field: shrunken log2 fold change. Item: RRIRCRPPRLPRPRPRPCDAPRP -0.466

Requested field: shrunken log2 fold change. Item: RRIRVRPPRLPRPRPRPEVHPRP -0.0892

Requested field: shrunken log2 fold change. Item: RRIRWRPPRLPRPRPRPHRRPRP -0.0988

Requested field: shrunken log2 fold change. Item: RRIRDRPPRLPRPRPRPEPRPRP 1

Requested field: shrunken log2 fold change. Item: RRIRTRPPRLPRPRPRPVEAPRP 0.0918

Requested field: shrunken log2 fold change. Item: RRIRCRPPRLPRPRPRPDVKPRP -0.153

Requested field: shrunken log2 fold change. Item: RRIRFRPPRLPRPRPRPAWLPRP 0.231

Requested field: shrunken log2 fold change. Item: RRIRGRPPRLPRPRPRPDWSPRP 0.203

Requested field: shrunken log2 fold change. Item: RRIRPRPPRLPRPRPRPAWQPRP 0.277

Requested field: shrunken log2 fold change. Item: RRIRFRPPRLPRPRPRPVCTPRP -0.324

Requested field: shrunken log2 fold change. Item: RRIRNRPPRLPRPRPRPKMDPRP 0.0178

Requested field: shrunken log2 fold change. Item: RRIRRRPPRLPRPRPRPAMNPRP 0.0496

Requested field: shrunken log2 fold change. Item: RRIRDRPPRLPRPRPRPYEFPRP 0.047

Requested field: shrunken log2 fold change. Item: RRIRNRPPRLPRPRPRPIPIPRP -0.0823

Requested field: shrunken log2 fold change. Item: RRIRCRPPRLPRPRPRPHGEPRP 0.0148

Requested field: shrunken log2 fold change. Item: RRIRTRPPRLPRPRPRPIADPRP -0.0123

Requested field: shrunken log2 fold change. Item: RRIRERPPRLPRPRPRPLLNPRP 0.0481

Requested field: shrunken log2 fold change. Item: RRIRKRPPRLPRPRPRPVIAPRP 0.437

Requested field: shrunken log2 fold change. Item: RRIRERPPRLPRPRPRPWMGPRP 0.299

Requested field: shrunken log2 fold change. Item: RRIRIRPPRLPRPRPRPEDYPRP -0.0393

Requested field: shrunken log2 fold change. Item: RRIRKRPPRLPRPRPRPAKKPRP 1.06

Requested field: shrunken log2 fold change. Item: RRIRGRPPRLPRPRPRPIEQPRP 0.109

Requested field: shrunken log2 fold change. Item: RRIRNRPPRLPRPRPRPMVMPRP -0.383

Requested field: shrunken log2 fold change. Item: RRIRWRPPRLPRPRPRPDMAPRP 0.204

Requested field: shrunken log2 fold change. Item: RRIRCRPPRLPRPRPRPDEAPRP 0.262

Requested field: shrunken log2 fold change. Item: RRIRMRPPRLPRPRPRPALHPRP 0.791

Requested field: shrunken log2 fold change. Item: RRIRTRPPRLPRPRPRPFRVPRP -0.108
